Biological target: human interleukin-23 receptor (recombinant human IL-23R-Fc chimera) (Homo sapiens, UniProt Q5VWK5)
Construct: Fc (IgG Fc fusion)
Assay: Human ELISA IL23/IL23R (assay for specific human IL23R antagonists)
Format: binding
Conditions: Table 10; read-out: Human ELISA IL23/IL23R IC50
Starred links: 1 amine or outer side, 2 acyl side, 3 side chain; linkers in the order of their positions; H or OH if unused. Positions of bridges follow the written chain, without caps; N, C: chain ends. Non-standard residues stand in square brackets, D forms with d. Residues, ends and D or L forms follow the SMILES beside them. *: point of attachment. X5 = CN(C(=O)CCC(=O)[*:3])[C@@H](CS[*:2])C(=O)[*:1]; Trp(7-Me) = Cc1cccc2c(C[C@H](N)C(=O)O)c[nH]c12; X1 = O=C(CCCCN[*:3])N[C@@H](CS[*:2])C(=O)[*:1]; 2Nal = N[C@@H](Cc1ccc2ccccc2c1)C(=O)O; AEF = NCCOc1ccc(C[C@H](N)C(=O)O)cc1; 3Pal = N[C@@H](Cc1cccnc1)C(=O)O; Lys(Me) = CNCCCC[C@H](N)C(=O)O; NMeN = CN[C@@H](CC(N)=O)C(=O)O; X4 = CN(CCCCCC(=O)[*:2])[*:1]; αMeL = CC(C)C[C@](C)(N)C(=O)O; Thp = NC1(C(=O)O)CCOCC1; Me2NCH2CH2 = CN(C)CC*; Aib = CC(C)(N)C(=O)O; Ahx = NCCCCCC(=O)O; Ava = NCCCCC(=O)O; Sar = CNCC(=O)O
test_readout: IC50 (nM)
Dear colleague, please return just the value in nM, with no unit written.

Challenge: Given the compound CC(=O)NCCCC[C@@H]1NC(=O)[C@H](Cc2c[nH]c3c(C)cccc23)NC(=O)[C@@H](NC(C)=O)CCCCNC(=O)[C@@H]2CSSC[C@H](NC1=O)C(=O)N[C@@H](Cc1ccc(OCCN(C)C)cc1)C(=O)N[C@@H](Cc1ccc3ccccc3c1)C(=O)NC1(CCOCC1)C(=O)N[C@H](C(=O)N[C@@H](CC(N)=O)C(=O)N[C@@H](Cc1cccnc1)C(=O)N(C)CC(N)=O)CCCCN(C)C(=O)CCC(=O)N2C [compound 74] (Ac-K[Trp(7-Me)]K(Ac)CY(Me2NCH2CH2)[2Nal][Thp][Lys(Me)]N[3Pal][Sar]-NH2; linker 1-4-8 via X5) , write its reported IC50.
Response given: 0.54

Challenge: Given the compound CC(=O)N[C@H]1CCCCNC(=O)[C@@H]2CSSC[C@H](NC(=O)[C@H](CC(C)C)NC(=O)[C@H](Cc3c[nH]c4c(C)cccc34)NC1=O)C(=O)N[C@@H](Cc1ccc(OCCN(C)C)cc1)C(=O)N[C@@H](Cc1ccc3ccccc3c1)C(=O)N[C@@](C)(CC(C)C)C(=O)N[C@H](C(=O)N[C@@H](C)C(=O)N[C@@H](Cc1cccnc1)C(=O)N(C)CC(N)=O)CCCCN(C)C(=O)CCC(=O)N2C [compound 70] (Ac-K[Trp(7-Me)]LCY(Me2NCH2CH2)[2Nal][αMeL][Lys(Me)]A[3Pal][Sar]-NH2; linker 1-4-8 via X5) , write its reported IC50.
Response given: 2.07

Challenge: Given the compound C[C@@H](O)[C@@H]1NC(=O)[C@H](CC(N)=O)NC(=O)[C@@H]2CSSC[C@H](NC(=O)[C@H](CCC(N)=O)NC(=O)[C@H](Cc3c[nH]c4ccccc34)NC1=O)C(=O)N[C@@H](Cc1ccc(OCCN)cc1)C(=O)N[C@@H](Cc1ccc3ccccc3c1)C(=O)NC(C)(C)C(=O)N[C@H](C(=O)N[C@@H](CC(N)=O)C(=O)NCC(N)=O)CC(=O)NCCCCCC(=O)N2 [compound 9] ([Ahx]CNTWQC[AEF][2Nal][Aib]DNG-NH2; disulfide 2-7; lactam N-11) , write its reported IC50.
Response given: 0.44

Challenge: Given the compound C[C@@H](O)[C@@H]1NC(=O)[C@H](CC(N)=O)NC(=O)[C@@H]2CSSC[C@H](NC(=O)[C@H](CCC(N)=O)NC(=O)[C@H](Cc3c[nH]c4ccccc34)NC1=O)C(=O)N[C@@H](Cc1ccc(OCCN)cc1)C(=O)N[C@H](Cc1ccc3ccccc3c1)C(=O)NC(C)(C)C(=O)N[C@H](C(=O)N[C@@H](CC(N)=O)C(=O)N[C@@H](CC(N)=O)C(N)=O)CCC(=O)NCCCCC(=O)N2 [compound 5] , write its reported IC50.
Response given: 0.61

Challenge: Given the compound COc1ccc(C[C@@H]2NC(=O)[C@@H]3CSSC[C@H](NC(=O)CCCCCNC(=O)C[C@@H](C(=O)N[C@@H](CC(N)=O)C(=O)N[C@@H](CC(N)=O)C(N)=O)NC(=O)C(C)(C)NC(=O)[C@H](Cc4ccc5ccccc5c4)NC2=O)C(=O)N(C)[C@@H](CC(N)=O)C(=O)N[C@@H]([C@@H](C)O)C(=O)N[C@@H](Cc2c[nH]c4ccccc24)C(=O)N[C@@H](CCC(N)=O)C(=O)N3)cc1 [compound 6] ([Ahx]C[NMeN]TWQCY(Me)[2Nal][Aib]DNN-NH2; disulfide 2-7; lactam N-11) , write its reported IC50.
Response given: 0.68

Challenge: Given the compound CC(=O)NCCCC[C@@H]1NC(=O)[C@H](Cc2c[nH]c3c(C)cccc23)NC(=O)[C@@H](NC(C)=O)CCCCNC(=O)[C@@H]2CSSC[C@H](NC1=O)C(=O)N[C@@H](Cc1ccc(OCCN(C)C)cc1)C(=O)N[C@@H](Cc1ccc3ccccc3c1)C(=O)N[C@@](C)(CC(C)C)C(=O)N[C@H](C(=O)N[C@@H](CC(N)=O)C(=O)N[C@@H](Cc1cccnc1)C(=O)N(C)CC(N)=O)CCC(=O)NCCCCC(=O)N2 [compound 73] (Ac-K[Trp(7-Me)]K(Ac)CY(Me2NCH2CH2)[2Nal][αMeL]EN[3Pal][Sar]-NH2; linker 1-4-8 via X1) , write its reported IC50.
Response given: 0.58

Challenge: Given the compound Cc1cccc2c(C[C@@H]3NC(=O)[C@H]([C@@H](C)O)NC(=O)[C@H](CC(N)=O)NC(=O)[C@@H]4CSSC[C@H](NC(=O)[C@H](CC(C)C)NC3=O)C(=O)N[C@@H](Cc3ccc(OCCN(C)C)cc3)C(=O)N[C@@H](Cc3ccc5ccccc5c3)C(=O)NC3(CCOCC3)C(=O)N[C@H](C(=O)N[C@@H](CC(N)=O)C(=O)N[C@@H](Cc3cccnc3)C(=O)N(C)CC(N)=O)CCC(=O)NCCCCC(=O)N4)c[nH]c12 [compound 24] ([Ava]CNT[Trp(7-Me)]LCY(Me2NCH2CH2)[2Nal][Thp]EN[3Pal][Sar]-NH2; disulfide 2-7; lactam N-11) , write its reported IC50.
Response given: 0.4

Challenge: Given the compound CC(C)C[C@@H](NC(=O)[C@H](CC(N)=O)NC(=O)[C@@H]1CC(=O)N(C)CCCCCC(=O)N[C@H]2CSSC[C@H](NC(=O)[C@H](CCC(N)=O)NC(=O)[C@H](Cc3c[nH]c4ccccc34)NC(=O)[C@H]([C@@H](C)O)NC(=O)[C@H](CC(N)=O)NC2=O)C(=O)N[C@@H](Cc2ccc(OCCN(C)C)cc2)C(=O)N[C@@H](Cc2ccc3ccccc3c2)C(=O)N[C@@](C)(CC(C)C)C(=O)N1)C(N)=O [compound 40] ([X4]CNTWQCY(Me2NCH2CH2)[2Nal][αMeL]DN[dL]-NH2; disulfide 2-7; lactam N-11) , write its reported IC50.
Response given: 1

----------
System: Pancreatin
Assay: Protease stability in simulated intestinal fluid (Pancreatin-SIF, FaSSIF)
Assay type: in vitro ADME
Settings: 240 min, 1 μM peptide, 37° C., read-out: FaSSIF 240 (min), remaining percent of peptide
Positions of bridges follow the written chain, without caps; N, C: chain ends. Non-standard residues stand in square brackets, D forms with d. Residues, ends and D or L forms follow the SMILES beside them. *: point of attachment. Trp(7-Me) = Cc1cccc2c(C[C@H](N)C(=O)O)c[nH]c12; 2Nal = N[C@@H](Cc1ccc2ccccc2c1)C(=O)O; αMeL = CC(C)C[C@](C)(N)C(=O)O; Me2NCH2CH2 = CN(C)CC*; Ava = NCCCCC(=O)O
test_readout: remaining at 4 h, 1 µM
The number alone won't do; follow it with the unit.

Challenge: Given the compound CC(=O)NCCCC[C@@H]1NC(=O)[C@H](Cc2c[nH]c3c(C)cccc23)NC(=O)[C@H]([C@@H](C)O)NC(=O)[C@H](CC(N)=O)NC(=O)[C@@H]2CSSC[C@H](NC1=O)C(=O)N[C@@H](Cc1ccc(OCCN(C)C)cc1)C(=O)N[C@@H](Cc1ccc3ccccc3c1)C(=O)N[C@@](C)(CC(C)C)C(=O)N[C@H](C(=O)N[C@@H](CC(N)=O)C(=O)N[C@@H](Cc1c[nH]cn1)C(N)=O)CCC(=O)NCCCCC(=O)N2 [compound 22] ([Ava]CNT[Trp(7-Me)]K(Ac)CY(Me2NCH2CH2)[2Nal][αMeL]ENH-NH2; disulfide 2-7; lactam N-11) , write its reported remaining at 4 h, 1 µM.
Response given: 79%

Challenge: Given the compound C[C@@H](O)[C@@H]1NC(=O)[C@H](CC(N)=O)NC(=O)[C@@H]2CSSC[C@H](NC(=O)[C@H](CCC(N)=O)NC(=O)[C@H](Cc3c[nH]c4ccccc34)NC1=O)C(=O)N[C@@H](Cc1ccc(OCCN(C)C)cc1)C(=O)N[C@H](Cc1ccc3ccccc3c1)C(=O)NC(C)(C)C(=O)N[C@H](C(=O)N[C@@H](CC(N)=O)C(=O)N[C@@H](CC(N)=O)C(N)=O)CCC(=O)NCCCCC(=O)N2 [compound 8] , write its reported remaining at 4 h, 1 µM.
Response given: 82%
